- Experiment Notes: Microsomal stability in human liver microsomes assessed as parent compound remaining at 5 uM measured after 60 mins by HPLC analysis
- Format: ADME, Microsome
- Condition Summary: read-out: Stability
Each entry below carries its recorded remaining at 1 h, 5 µM.
Form entry: value (%) — number only.

IN: Item C=CC(=O)Nc1cc(O[C@@H]2CCOC2)ccc1Nc1ncc2cc(-c3c(Cl)c(OC)cc(OC)c3Cl)c3nccn3c2n1 has what recorded remaining at 1 h, 5 µM?
OUT: 17

IN: Item C=CC(=O)Nc1cc(N2CCN(CC)CC2)ccc1Nc1ncc2cc(-c3c(Cl)c(OC)cc(OC)c3Cl)c3nccn3c2n1 has what recorded remaining at 1 h, 5 µM?
OUT: 62

IN: Item C=CC(=O)Nc1cc(N2CCOCC2)ccc1Nc1ncc2cc(-c3c(Cl)c(OC)cc(OC)c3Cl)c3nccn3c2n1 has what recorded remaining at 1 h, 5 µM?
OUT: 39

IN: Item C=CC(=O)Nc1cc(N2CCOCC2)ccc1Nc1ncc2cc(-c3c(F)c(OC)cc(OC)c3F)c3nccn3c2n1 has what recorded remaining at 1 h, 5 µM?
OUT: 32
